biological target: Tyk2 (Homo sapiens (Human), UniProt P29597); test: pSTAT4 Cell Assay (MSD, NK92 cells); format: cell-based; conditions: MSD
Sequence (P29597 whole entry): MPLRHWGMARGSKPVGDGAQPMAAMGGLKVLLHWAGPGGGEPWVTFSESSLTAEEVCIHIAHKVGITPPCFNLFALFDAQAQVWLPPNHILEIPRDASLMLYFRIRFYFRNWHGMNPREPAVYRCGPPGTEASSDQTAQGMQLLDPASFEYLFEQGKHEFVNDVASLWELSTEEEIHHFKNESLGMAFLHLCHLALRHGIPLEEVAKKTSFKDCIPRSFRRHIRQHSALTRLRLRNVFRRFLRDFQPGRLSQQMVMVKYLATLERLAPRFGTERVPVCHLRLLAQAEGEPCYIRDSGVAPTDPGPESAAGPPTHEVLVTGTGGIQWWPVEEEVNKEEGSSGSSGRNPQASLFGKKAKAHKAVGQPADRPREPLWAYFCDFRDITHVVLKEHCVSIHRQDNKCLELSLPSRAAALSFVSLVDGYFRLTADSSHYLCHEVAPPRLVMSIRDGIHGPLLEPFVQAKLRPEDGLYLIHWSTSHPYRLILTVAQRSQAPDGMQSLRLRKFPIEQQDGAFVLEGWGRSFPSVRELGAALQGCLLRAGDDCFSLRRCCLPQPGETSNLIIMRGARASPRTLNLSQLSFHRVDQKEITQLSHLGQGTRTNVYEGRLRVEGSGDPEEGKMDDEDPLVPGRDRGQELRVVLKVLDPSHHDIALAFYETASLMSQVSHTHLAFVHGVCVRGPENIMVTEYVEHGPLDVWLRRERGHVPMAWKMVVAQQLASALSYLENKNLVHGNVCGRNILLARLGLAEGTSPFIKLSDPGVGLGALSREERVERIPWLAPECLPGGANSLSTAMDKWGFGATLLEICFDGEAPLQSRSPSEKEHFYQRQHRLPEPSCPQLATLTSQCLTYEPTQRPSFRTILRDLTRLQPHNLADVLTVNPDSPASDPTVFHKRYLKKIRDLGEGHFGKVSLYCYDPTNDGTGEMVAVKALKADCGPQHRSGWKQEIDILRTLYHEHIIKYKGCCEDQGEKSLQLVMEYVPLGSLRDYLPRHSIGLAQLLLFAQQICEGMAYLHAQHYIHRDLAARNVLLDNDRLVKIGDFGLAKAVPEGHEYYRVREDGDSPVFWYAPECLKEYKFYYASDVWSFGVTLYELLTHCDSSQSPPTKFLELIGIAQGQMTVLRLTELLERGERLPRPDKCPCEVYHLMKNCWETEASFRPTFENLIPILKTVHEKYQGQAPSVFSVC
Recorded IC50, one value per entry.

INSERT INTO results (compound, reading) VALUES
  ('CC(=O)Nc1cc(Nc2cc(OC3CC3)nc(C(C)(F)F)n2)c(OCc2ccccn2)cn1', '10 to 100 nM');

q: Fill blank: measured IC50 of the compound `CCc1cc(Nc2cc(NC(C)=O)ncc2-c2ccc(CN(C)C)cn2)nc(C(C)(F)F)n1` is ____.
a: ≤ 10 nM

q: Fill blank: measured IC50 of the compound `COc1cnc(NC(C)=O)cc1Nc1cc(-c2cnn(C(C)C)c2)nc(C(C)(F)F)n1` is ____.
a: ≤ 10 nM

q: Fill blank: measured IC50 of the compound `CC(=O)Nc1cc(Nc2cc(C)nc(C(C)(F)F)n2)c(OCc2ccc(F)cn2)cn1` is ____.
a: 10 to 100 nM

q: Fill blank: measured IC50 of the compound `CCOc1cnc(NC(C)=O)cc1Nc1cc(-c2cncc(OC)c2)nc(C(C)(F)F)n1` is ____.
a: 10 to 100 nM
